Target: VAV1 (Homo sapiens, UniProt P15498+Q96SW2)
Construct: A heterozygous VAV1 C-terminal HiBiT knock-in pool was generated at Monte Rosa Therapeutics from a clonal Jurkat cell; endogenous in cells; host or cells: Jurkat clone stably expressing LgBiT, homozygous GSPT1-G575N; heterozygous VAV1-HiBiT knock-in pool
Assay: VAV1 degradation activity, VAV1-HiBiT knock-in Jurkat luminescence assay (Example A, Table 1)
Assay type: cell-based
Conditions: VAV1-HiBiT knock-in Jurkat cells, luminescence read at 6 and 24 hours after compound addition; read-out: VAV1 DC50
Protocol: Cells were plated at 10,000 cells per well using Multiflo (BioTek) or Multi Drop Combi (Thermo Fisher) in 384-well white solid bottom plates (Corning, 3570BC) in 25 ul volume in RPMI 1640 media (Thermo Fischer, 22400105) containing 10% FBS (Corning, 35-075-CV), 1% Penicillin/Streptomycin (ThermoFisher Scientific, 15140-122), and 1% Endurazine (Nano-Glo Endurazine Live Cell Substrate (Promega, N2571)). Cells were incubated for ˜16 hours at 37° C., 5% CO2. […]
parameter measured: DC50 (nM)

Here are 4 compounds together with their reported answers.
compound	units	DC50
O=C1CCC(c2cccc(-c3ccc4c(c3)CC(=O)N4CC3CC3)c2Cl)C(=O)N1 (stereo not shown) [Compound 506]	nM	1770
Cn1ccc(CN2C(=O)COc3cc(-c4cccc(C5CCC(=O)NC5=O)c4Cl)ccc32)n1 (stereo not shown) [Compound 502]	nM	3.95
CC1Cc2cc(-c3cccc(C4CCC(=O)NC4=O)c3Cl)ccc2N1 (stereo not shown) [Compound 500]	nM	7.51
Cn1ccc(CN2C(=O)Cc3cc(-c4cccc(C5CCC(=O)NC5=O)c4Cl)ccc32)n1 (stereo not shown) [Compound 496]	nM	12.7

(I) O=C1CCC(c2cccc(-c3ccc4c(c3)CCCN4)c2Cl)C(=O)N1 (stereo not shown) [Compound 486]
(II) O=C1CCC(c2cccc(-c3ccc4c(c3)CCN4)c2Cl)C(=O)N1 (stereo not shown) [Compound 490]
Request: Field: entry with larger DC50 (options I / II ). // respond with label for picked entry
Response: II

(I) CC1(C)Cc2cc(-c3cccc(C4CCC(=O)NC4=O)c3Cl)ccc2N1 (stereo not shown) [Compound 497]
(II) O=C1CCC(c2cccc(-c3ccc4c(c3)CCC(=O)N4)c2Cl)C(=O)N1 (stereo not shown) [Compound 492]
Request: Field: entry with larger DC50 (options I / II ). // respond with label for picked entry
Response: I
(I: 18 nM, II: 10.7 nM)

(a) O=C1CCC(c2cccc(-c3ccc4c(c3)OCCN4)c2Cl)C(=O)N1 (stereo not shown) [Compound 487]
(b) Cn1cncc1Cn1ncc2cc(-c3cccc(C4CCC(=O)NC4=O)c3Cl)ccc21 (stereo not shown) [Compound 508]
Request: Field: entry with larger DC50 (options a / b ). // respond with label for picked entry
Response: b
(b: 63.2 nM, a: 23.7 nM)
